target: human GPR40 (Homo sapiens); test: Determination of EC50 against human GPR40: changes in intracellular calcium concentration by FLIPR in CHO cells stably expressing human GPR40; conditions: CHO cell line stably expressing human GPR40, Fluo3-AM, read-out: EC50 (Receptor Function Modulating Action On GPR40)
Sequence (O14842 whole entry): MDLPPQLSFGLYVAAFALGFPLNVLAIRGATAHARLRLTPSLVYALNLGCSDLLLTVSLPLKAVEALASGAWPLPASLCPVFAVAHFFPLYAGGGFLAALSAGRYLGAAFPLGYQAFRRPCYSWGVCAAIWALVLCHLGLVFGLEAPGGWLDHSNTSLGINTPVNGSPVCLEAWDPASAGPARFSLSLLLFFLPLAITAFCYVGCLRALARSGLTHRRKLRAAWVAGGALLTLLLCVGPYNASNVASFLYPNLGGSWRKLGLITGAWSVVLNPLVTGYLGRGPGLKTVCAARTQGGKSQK
Reported Endpoint: EC50 (nM)
Kindly provide the numeric value in nM only, without the unit symbol.

The recorded EC50 for entry COc1ccc(COc2ccc(CCC(=O)O)cc2)cc1-c1ccc(C)cc1C [Example 49] equals 11

The recorded EC50 for entry Cc1cc(OC2CCS(=O)(=O)CC2)cc(C)c1-c1cccc(COc2ccc(CCC(=O)O)c(F)c2)c1 [Example 114] equals 20

Next:
The recorded EC50 for entry Cc1cc(OCCc2scnc2C)ccc1-c1cccc(COc2ccc(CCC(=O)O)cc2)c1 [Example 14] equals 10

The recorded EC50 for entry Cc1cc(C)c(-c2cccc(COc3ccc(CCC(=O)O)c(F)c3)c2)c(COc2ccc(F)cc2)c1 [Example 54] equals 49

The recorded EC50 for entry CCOCCOc1cc(C)c(-c2cccc(COc3ccc(CC(F)(F)C(=O)O)cc3)c2)c(C)c1 [Example 75] equals 16
